Reported MIC values for a set of compounds
- Tested on: E. coli C 165
- PROTOCOL_DETAILS: MIC, test tube series dilution test, E. coli C 165
- Format: cell-based
- CONDITIONS: 24 hours, 37°C
Number only, in U/ml; omit the unit.

Example cases with answers are listed next.
compound="CC1(C)S[C@@H]2[C@H](NC(=O)[C@H](NC(=O)CNC(=O)c3ccc(NC(=O)C4CC4)cc3)c3ccccc3)C(=O)N2[C@H]1C(=O)O [Example 64]" units_text=U/ml readout_value=32
compound="CC1(C)S[C@@H]2[C@H](NC(=O)[C@H](NC(=O)c3ccc(NC(=O)C=Cc4ccccc4)cc3)c3ccccc3)C(=O)N2[C@H]1C(=O)O [Example 35]" units_text=U/ml readout_value=4
compound="CC1(C)S[C@@H]2[C@H](NC(=O)[C@H](NC(=O)c3ccc(NC(=O)Nc4ccccc4)cc3)c3ccccc3)C(=O)N2[C@H]1C(=O)O [Example 45]" units_text=U/ml readout_value=8

Reported MIC ( CC1(C)S[C@@H]2[C@H](NC(=O)[C@H](NC(=O)c3ccc(NC(=O)c4ccc([N+](=O)[O-])cc4)cc3)c3ccccc3)C(=O)N2[C@H]1C(=O)O [Example 28] ) = 4

Reported MIC ( CC1(C)S[C@@H]2[C@H](NC(=O)[C@H](NC(=O)c3ccc(NC(=O)c4ccc(N)cc4)cc3)c3ccccc3)C(=O)N2[C@H]1C(=O)O [Example 29] ) = 4

Reported MIC ( CC1(C)S[C@@H]2[C@H](NC(=O)[C@H](NC(=O)c3ccc(NC(=O)C4CC4)cc3)c3ccccc3)C(=O)N2[C@H]1C(=O)O [Example 1] ) = 16

Reported MIC ( CC1(C)S[C@@H]2[C@H](NC(=O)[C@H](NC(=O)c3ccc(NC(=O)C4CCC4)cc3)c3ccccc3)C(=O)N2[C@H]1C(=O)O [Example 5] ) = 16

Reported MIC ( CC1(C)S[C@@H]2[C@H](NC(=O)[C@H](NC(=O)c3ccc(NC(=O)C4CC=CCC4)cc3)c3ccccc3)C(=O)N2[C@H]1C(=O)O (single isomer, unassigned) [Example 12] ) = 8

Reported MIC ( CC1(C)S[C@@H]2[C@H](NC(=O)[C@H](NC(=O)c3ccc(NC(=O)CC4C=CCC4)cc3)c3ccccc3)C(=O)N2[C@H]1C(=O)[O-].[Na+] (stereo partly drawn) [Example 8] ) = 8

---

- Tested on: Psdm. aerug. F 41
- PROTOCOL_DETAILS: MIC, test tube series dilution test, Psdm. aerug. F 41
- Format: cell-based, Pseudomonas aeruginosa
- CONDITIONS: Psdm. aerug. F 41; 24 hours, 37°C
VALUE_TYPE: MIC (U/ml)
Number only, in U/ml; omit the unit.

given_smiles=CC1(C)S[C@@H]2[C@H](NC(=O)[C@H](NC(=O)c3ccc(NC(=O)c4ccc(N=[N+]=[N-])cc4)cc3)c3ccccc3)C(=O)N2[C@H]1C(=O)O test_target="Psdm. aerug. F 41" readout_value=16

Turning now to a further record.
Reported MIC ( CC1(C)S[C@@H]2[C@H](NC(=O)[C@H](NC(=O)c3ccc(NC(=O)Nc4ccccc4)cc3)c3ccccc3)C(=O)N2[C@H]1C(=O)O ) = 8

---

Reported MIC values for a set of compounds
- Test system: Psdm. aerug. F 41
- PROTOCOL_DETAILS: MIC, test tube series dilution test, Psdm. aerug. F 41
- Format: cell-based, Pseudomonas aeruginosa
- CONDITIONS: Psdm. aerug. F 41; 24 hours, 37°C

compound=CC1(C)S[C@@H]2[C@H](NC(=O)[C@H](NC(=O)CSc3ccc(NC(=O)C4CC4)cc3)c3ccccc3)C(=O)N2[C@H]1C(=O)O value_type=MIC readout_value="~ 256 U/ml"
compound=CC1(C)S[C@@H]2[C@H](NC(=O)[C@H](NC(=O)c3ccc(NC(=O)C4CCCC4)cc3)c3ccccc3)C(=O)N2[C@H]1C(=O)O value_type=MIC readout_value="32 U/ml"
compound=CC1(C)S[C@@H]2[C@H](NC(=O)[C@H](NC(=O)c3ccc(NC(N)=O)cc3)c3ccccc3)C(=O)N2[C@H]1C(=O)O value_type=MIC readout_value="128 U/ml"
compound="CC(N=[N+]=[N-])C(=O)Nc1ccc(C(=O)N[C@@H](C(=O)N[C@@H]2C(=O)N3[C@@H]2SC(C)(C)[C@@H]3C(=O)O)c2ccccc2)cc1 (some centres unmarked)" value_type=MIC readout_value="~ 32 U/ml"
compound=COc1cc(OC)cc(C(=O)Nc2ccc(C(=O)N[C@@H](C(=O)N[C@@H]3C(=O)N4[C@@H]3SC(C)(C)[C@@H]4C(=O)O)c3ccccc3)cc2)c1 value_type=MIC readout_value="16 U/ml"

Reported MIC ( CC1(C)S[C@@H]2[C@H](NC(=O)[C@H](NC(=O)c3ccc(NC(=O)C4CCC=CCC4)cc3)c3ccccc3)C(=O)N2[C@H]1C(=O)O ) = 32 U/ml

Reported MIC ( CC1(C)S[C@@H]2[C@H](NC(=O)[C@H](NC(=O)c3ccc(NC(=O)c4ccc([N+](=O)[O-])cc4)cc3)c3ccccc3)C(=O)N2[C@H]1C(=O)O ) = 16 U/ml

Reported MIC ( CC1(C)S[C@@H]2[C@H](NC(=O)[C@H](NC(=O)c3ccc(NC(=O)c4ccc(N)cc4)cc3)c3ccccc3)C(=O)N2[C@H]1C(=O)O ) = ~ 32 U/ml

Reported MIC ( CC1(C)S[C@@H]2[C@H](NC(=O)[C@H](NC(=O)CNC(=O)c3ccc(NC(=O)C4CC4)cc3)c3ccccc3)C(=O)N2[C@H]1C(=O)O ) = 256 U/ml

Reported MIC ( CC1(C)S[C@@H]2[C@H](NC(=O)[C@H](NC(=O)c3ccc(NC(=O)CN=[N+]=[N-])cc3)c3ccccc3)C(=O)N2[C@H]1C(=O)O ) = 32 U/ml

Reported MIC ( CC1(C)S[C@@H]2[C@H](NC(=O)[C@H](NC(=O)c3ccc(NC(=O)C4CC=CCC4)cc3)c3ccccc3)C(=O)N2[C@H]1C(=O)O (single isomer, unassigned) ) = 32 U/ml

Reported MIC ( CC1(C)S[C@@H]2[C@H](NC(=O)[C@H](NC(=O)Cc3ccc(NC(=O)C4CCC4)cc3)c3ccccc3)C(=O)N2[C@H]1C(=O)O ) = > 256 U/ml

Reported MIC ( Cc1cc(C)cc(C(=O)Nc2ccc(C(=O)N[C@@H](C(=O)N[C@@H]3C(=O)N4[C@@H]3SC(C)(C)[C@@H]4C(=O)O)c3ccccc3)cc2)c1 ) = ~ 16 U/ml
